Values from the supplement of paper PMC11061612

Measured combination Emax values are reported for all entries that follow.
Test system: TE-9 (Esophageal Squamous Cell Carcinoma)
Assay: combination Emax (second highest fraction inhibited in the dose matrix, 72 h); higher = more inhibition; extreme values may be limits of the assay
Give the figure only, with no unit attached.

Known combination Emax results, listed for orientation:
CC1(C)CCC(CN2CCN(c3ccc(C(=O)NS(=O)(=O)c4ccc(NCC5CCOCC5)c([N+](=O)[O-])c4)c(Oc4cnc5[nH]ccc5c4)c3)CC2)=C(c2ccc(Cl)cc2)C1 [Venetoclax] + COc1cc(Nc2ncc3c(n2)-c2ccc(Cl)cc2C(c2c(F)cccc2OC)=NC3)ccc1C(=O)O [Alisertib] (first compound max 1 µM, 7x7, partner max 10 µM); 0.369
Cn1cnc2c(F)c(Nc3ccc(Br)cc3Cl)c(C(=O)NOCCO)cc21 [Selumetinib] + C=CCn1c(=O)c2cnc(Nc3ccc(N4CCN(C)CC4)cc3)nc2n1-c1cccc(C(C)(C)O)n1 [AZD1775] (first compound max 10 µM, partner max 1 µM); 0.231

For the next question, use this compound.
Exam item: Given the entry CS(=O)(=O)CCNCc1ccc(-c2ccc3ncnc(Nc4ccc(OCc5cccc(F)c5)c(Cl)c4)c3c2)o1 [Lapatinib] + NC1(c2ccc(-c3nc4ccn5c(=O)[nH]nc5c4cc3-c3ccccc3)cc2)CCC1 [MK-2206] (first compound max 10 µM, 7x7, partner max 10 µM) , report its measured combination Emax.
Marked response: 0.306

---

Measured combination Emax values are reported for all entries that follow.
Tested on: RC-K8 (B-Cell Non-Hodgkin's Lymphoma)
Assay: combination Emax (second highest fraction inhibited in the dose matrix, 72 h); higher = more inhibition; extreme values may be limits of the assay
Give the figure only, with no unit attached.

NC1(C(=O)N[C@@H](CCO)c2ccc(Cl)cc2)CCN(c2ncnc3[nH]ccc23)CC1 [Capivasertib] + CC(=O)c1c(C)c2cnc(Nc3ccc(N4CCNCC4)cn3)nc2n(C2CCCC2)c1=O [Palbociclib] (first compound max 10 µM, 7x7, partner max 10 µM); 0.435

Exam item: Item CC1(C)CCC(CN2CCN(c3ccc(C(=O)NS(=O)(=O)c4ccc(NCC5CCOCC5)c([N+](=O)[O-])c4)c(Oc4cnc5[nH]ccc5c4)c3)CC2)=C(c2ccc(Cl)cc2)C1 [Venetoclax] + C=CCn1c(=O)c2cnc(Nc3ccc(N4CCN(C)CC4)cc3)nc2n1-c1cccc(C(C)(C)O)n1 [AZD1775] (first compound max 1 µM, partner max 1 µM) with RC-K8 (B-Cell Non-Hodgkin's Lymphoma) - combination Emax?
Marked response: 0.815

Exam item: Try this compound too: Cc1c2c(nn1C)CSCc1cc(n(C)n1)CSc1cc(c3ccccc3c1)OCCCc1c(C(=O)O)n(C)c3c-2c(Cl)ccc13 [AZD5991] + C1CN(CCC1(C(=O)N[C@@H](CCO)C2=CC=C(C=C2)Cl)N)C3=NC=NC4=C3C=CN4 [Capivasertib] (first compound max 1 µM, 7x7, partner max 3 µM)
Marked response: 0.161

---

System: NCI-H82 (Small Cell Lung Carcinoma);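 also: after 72 h of two-drug dosing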
Assay: Bliss excess, mean over the matrix (fraction); higher = more synergy
property-label: Bliss excess
Give the figure only, with no unit attached.

COc1nnc2ccc(N3CCC(c4ccc(OCCN5CCN(C)C(=O)[C@H]5C)cc4)CC3)nn12 [AZD5153] + Cn1cnc2c(F)c(Nc3ccc(Br)cc3Cl)c(C(=O)NOCCO)cc21 [Selumetinib] (first compound max 1 µM, 7x7, partner max 10 µM); -0.0771

For the next question, use this molecule.
Exam item: Item Cc1c2c(nn1C)CSCc1cc(n(C)n1)CSc1cc(c3ccccc3c1)OCCCc1c(C(=O)O)n(C)c3c-2c(Cl)ccc13 [AZD5991] + Cc1cc2ncnn2cc1Nc1ncc2c(n1)n(C1CCOCC1)c(=O)n2C [AZD7648] (first compound max 1 µM, 7x7, partner max 10 µM) with NCI-H82 (Small Cell Lung Carcinoma) - Bliss excess?
Marked response: 0.0174
